Molecular target: δ^1-pyrroline-5-carboxylate reductase (P5C reductase) (Arabidopsis thaliana, UniProt P54904)
Sequence (P54904 1-276): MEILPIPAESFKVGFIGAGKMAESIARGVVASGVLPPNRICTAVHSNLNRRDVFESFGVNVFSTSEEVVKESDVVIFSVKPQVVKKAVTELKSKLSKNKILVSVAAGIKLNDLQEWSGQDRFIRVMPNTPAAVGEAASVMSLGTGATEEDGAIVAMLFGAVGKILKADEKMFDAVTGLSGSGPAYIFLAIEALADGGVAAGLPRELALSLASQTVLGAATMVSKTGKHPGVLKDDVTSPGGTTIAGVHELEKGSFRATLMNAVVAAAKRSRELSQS
pIC50: −log10 of the molar value.
MEASURED ENDPOINT: pIC50

{"COMPOUND": "O=C(O)[C@@H]1CCCN1 [proline]", "MEASURED ENDPOINT": "pIC50", "MEASURED VALUE": 1.08}
{"COMPOUND": "O=P(O)(O)[C@@H]1CCCON1 [(R)-6, (R)-(−)-1,2-oxazinan-3-ylphosphonic acid]", "MEASURED ENDPOINT": "pIC50", "MEASURED VALUE": 1.35}
{"COMPOUND": "O=P(O)(O)[C@H]1CCCN1 [(S)-1, Pyrrolidin-2-ylphosphonic Acid]", "MEASURED ENDPOINT": "pIC50", "MEASURED VALUE": 1.68}
{"COMPOUND": "O=P(O)(O)[C@@H]1CCCN1 [(R)-1, Pyrrolidin-2-ylphosphonic Acid]", "MEASURED ENDPOINT": "pIC50", "MEASURED VALUE": 1.62}
